assay: Antiproliferative activity against human ECA109 cells after 72 hrs by MTT assay; assay type: functional, cell-based; details: ECa-109, 72 h
measure.name: pIC50
pIC50 field: float, defined as -log10 of concentration (mol/L).

                            chemical_smiles  measure_name  reported_value
0  CCOC(=O)[C@]1(C)CCC[C@@]2(C)[C@@H]3CC[C@@]4(C)C[C@]3(CC[C@@H]21)[C@@H](O)[C@H]4N         pIC50            4.38
1  CCOC(=O)[C@]1(C)CCC[C@@]2(C)[C@@H]3CC[C@@]4(C)C[C@]3(CC[C@@H]21)[C@@H](O)[C@H]4NC(=S)Nc1cc(C(F)(F)F)cc(C(F)(F)F)c1         pIC50            4.34
2  CCOC(=O)[C@]1(C)CCC[C@@]2(C)[C@@H]3CC[C@@]4(C)C[C@]3(CC[C@@H]21)[C@@H](O)[C@H]4NC(=O)[C@@H]1CCCN1         pIC50            4.16

API: the following record is the query input.
What does the record list as pIC50 for `CCOC(=O)[C@]1(C)CCC[C@@]2(C)[C@@H]3CC[C@@]4(C)C[C@]3(CC[C@@H]21)[C@H](C=O)[C@H]4N1CCCC1` ?
4.52

---

assay: Antiproliferative activity against human ECA109 cells after 72 hrs by MTT assay; assay type: functional, cell-based; conditions: ECa-109, 72 h
measure.name: pIC50
pIC50 field: float, defined as -log10 of concentration (mol/L).

Worked examples, 2 compounds total:
>>> df
                            chemical_smiles  reported_value
0  CCOC(=O)[C@]1(C)CCC[C@@]2(C)[C@@H]3CC[C@@]4(C)C[C@]3(CC[C@@H]21)[C@H](CO)[C@H]4O            4.36
1  CCOC(=O)[C@]1(C)CCC[C@@]2(C)[C@@H]3CC[C@@]4(C)C[C@]3(CC[C@@H]21)[C@@H](CN)[C@@H]4O            5.30

API: the following record is the query input.
What does the record list as pIC50 for `CCOC(=O)[C@]1(C)CCC[C@@]2(C)[C@@H]3CC[C@@]4(C)C[C@]3(CC[C@@H]21)[C@@H](O)[C@H]4O` ?
4.04

---

test: Antiproliferative activity against human ECA109 cells after 72 hrs by MTT assay; type: functional, cell-based; settings: ECa-109, 72 h
Property: IC50; scope: individual molecules

Worked examples, 5 molecules total:
>>> print(df.to_string())
                            chemical_smiles  reported_value
0  CCOC(=O)[C@]1(C)CCC[C@@]2(C)[C@@H]3CC[C@@]4(C)C[C@]3(CC[C@@H]21)[C@H](/C=N/O)[C@H]4O         17.9 µM
1  CCOC(=O)[C@]1(C)CCC[C@@]2(C)[C@@H]3CC[C@](C)(C#N)C[C@@]3(C(=O)O)CC[C@@H]21        > 100 µM
2  CCOC(=O)[C@]1(C)CCC[C@@]2(C)[C@@H]3CC[C@](C)(C(N)=O)C[C@@]3(C(=O)O)CC[C@@H]21        > 100 µM
3  CCOC(=O)[C@]1(C)CCC[C@@]2(C)[C@@H]3CC[C@@]4(C)C[C@]3(CC[C@@H]21)C(=O)[C@H]4NC(=S)Nc1cc(C(F)(F)F)cc(C(F)(F)F)c1        > 100 µM
4  CCOC(=O)[C@]1(C)CCC[C@@]2(C)[C@@H]3CC[C@@]4(C)C[C@]3(CC[C@@H]21)[C@@H](O)/C4=N\O        > 100 µM

What does the record list as IC50 for `CCOC(=O)[C@]1(C)CCC[C@@]2(C)[C@@H]3CC[C@@]4(C)C[C@]3(CC[C@@H]21)[C@H](CNC(C)=O)[C@H]4O` ?
13.3 µM

What does the record list as IC50 for `CCOC(=O)[C@]1(C)CCC[C@@]2(C)[C@@H]3CC[C@@]4(C)C[C@]3(CC[C@@H]21)[C@H](CNC(C)=O)[C@H]4OC(C)=O` ?
> 100 µM

---

Property: IC50; scope: individual molecules
assay: Antiproliferative activity against human ECA109 cells after 72 hrs by MTT assay; type: functional, cell-based; conditions: ECa-109, 72 h

In [3]: df
Out[3]:
                            chemical_smiles  measure_name  reported_value
0  CCOC(=O)[C@]1(C)CCC[C@@]2(C)[C@@H]3CC[C@@]4(C)C[C@]3(CC[C@@H]21)[C@@H](O)[C@H]4NC(=S)Nc1ccccc1          IC50         72.3 µM

What does the record list as IC50 for `C[C@@]12CC[C@@H]3[C@@](CC[C@H]4[C@@]3(C)CCC[C@@]4(C)C(=O)O)(CC1=O)C2` ?
> 100 µM

What does the record list as IC50 for `CCOC(=O)[C@]1(C)CCC[C@@]2(C)[C@@H]3CC[C@@]4(C)C[C@]3(CC[C@@H]21)C(=O)[C@H]4NC(=S)Nc1ccccc1` ?
> 100 µM

What does the record list as IC50 for `CCOC(=O)[C@]1(C)CCC[C@@]2(C)[C@@H]3CC[C@@]4(C)C[C@]3(CC[C@@H]21)C(=O)[C@H]4NC(=O)[C@@H]1CCCN1` ?
> 100 µM

What does the record list as IC50 for `CCOC(=O)[C@]1(C)CCC[C@@]2(C)[C@@H]3CC[C@]4(C)C=C(C=O)[C@@]3(CC[C@@H]21)C4` ?
> 100 µM

What does the record list as IC50 for `CCOC(=O)[C@]1(C)CCC[C@@]2(C)[C@@H]3CC[C@@]4(C)C[C@]3(CC[C@@H]21)[C@@H](O)[C@H]4NC(=S)Nc1cccc2ccccc12` ?
90.9 µM

---

assay: Antiproliferative activity against human ECA109 cells after 72 hrs by MTT assay; format: functional, cell-based; details: ECa-109, 72 h
measure.name: IC50

What does the record list as IC50 for `CCOC(=O)[C@]1(C)CCC[C@@]2(C)[C@@H]3CC[C@@]4(C)C[C@]3(CC[C@@H]21)C(=O)[C@H]4O` ?
> 100 µM

---

assay: Antiproliferative activity against human ECA109 cells after 72 hrs by MTT assay; assay type: functional, cell-based; details: ECa-109, 72 h
pIC50: −log10 of the molar value.
measure.name: pIC50

In [3]: df
Out[3]:
                            chemical_smiles  reported_value
0  CCOC(=O)[C@]1(C)CCC[C@@]2(C)[C@@H]3CC[C@](C)(C(=O)O)C[C@@]3(C(=O)O)CC[C@@H]21          < 4.00

What does the record list as pIC50 for `CCOC(=O)[C@]1(C)CCC[C@@]2(C)[C@@H]3CC[C@@]4(C)C[C@]3(CC[C@@H]21)C(=O)C4=O` ?
< 4.00

What does the record list as pIC50 for `CCOC(=O)[C@]1(C)CCC[C@@]2(C)[C@@H]3CC[C@@]4(C)C[C@]3(CC[C@@H]21)[C@H](C=O)[C@H]4O` ?
4.58

# credit: ChEMBL document CHEMBL2069210
